Data provenance is PubChem BioAssay (Tox21).

assay: qHTS assay to identify small molecule agonists of the sonic hedgehog signaling (Shh) pathway (AID 1259368); conditions: NIH/3T3 Gli1-Luc reporter, luciferase, 24 h; series mostly up to 92.4 µM;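 also: NIH/3T3-derived 3T3Gli1-Luc cells carrying a stable Gli1-driven firefly luciferase reporter; nearly all actives have a fitted effect of over 15% in size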
The source made the active and inactive calls. Calls follow the shape of the full dose curve.
property.label: outcome

Examples from the recorded data:
> print(dat)
                                   molecule  measurement
1                 CC(O)(P(=O)(O)O)P(=O)(O)O     inactive
2                                 Oc1ccccc1     inactive
3  Cc1c(C(=O)O)c(O)cc2c1C(=O)c1c(O)c([C@@H]3O[C@H](CO)[C@@H](O)[C@H](O)[C@H]3O)c(O)c(O)c1C2=O     inactive
4                  CCCC[P+](CCCC)(CCCC)CCCC     inactive
5  CC(C)c1c(C(=O)Nc2ccccc2)c(-c2ccccc2)c(-c2ccc(F)cc2)n1CC[C@@H](O)C[C@@H](O)CC(=O)O     inactive
6  CCCCCCCC(=O)OCC(COC(=O)CCCCCCC)OC(=O)CCCCCCC     inactive
7                 CNNCc1ccc(C(=O)NC(C)C)cc1     inactive
8  CN[C@H]1CC[C@@H](c2ccc(Cl)c(Cl)c2)c2ccccc21     inactive

Switching to the query record.
**Query** Record request: outcome value, item CN(N=O)C(=O)N[C@@H]1[C@@H](O)[C@H](O)[C@@H](CO)O[C@@H]1O
**Result** inactive
